# tested target: T1, human IL-1α (human, UniProt P01583 113-271)
# T1 sequence (looked up): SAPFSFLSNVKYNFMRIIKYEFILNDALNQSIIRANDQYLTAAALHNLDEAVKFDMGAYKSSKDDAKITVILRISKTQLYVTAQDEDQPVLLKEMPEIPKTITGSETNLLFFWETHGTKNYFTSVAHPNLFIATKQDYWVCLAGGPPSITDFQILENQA
# test details: cell-based or functional assay
This listing pairs binders with measured MRC5 ND10.
Numeric only. Scale: nM

Consider the binder shown here: ABT1-122 (other, dAb, Vκ, to IL-1α) VL: DIQMTQSPSSLSASVGDRVTITCRASQPIWTELNWYQQKPGKAPKLLIYGSSSLQSGVPSRFSGSGSGTDFTLTISSLQPEDFATYYCQQFAYFPATFGQGTKVEIKR What is its recorded MRC5 ND10? 9

Tell me the measured MRC5 ND10 of ABT1-95 (other, dAb, Vκ, to IL-1α; also called dAb ABT1-95) VL: DIQMTQSPSSLSASVGDRVTITCRASQPIHGNLRWYQQKPGKAPKLLIYNISNLQSGVPSRFSGSGSGTDFTLTISSLQPEDFATYYCQQGYRWPVTFGQGTKVEIKR , please. 150

So what's the measured MRC5 ND10 for this one? ABT1-141 (other, dAb, Vκ, to IL-1α; also called dAb ABT1-141) VL: DIQMTQSPSSLSASVGDRVTITCRASQWIQKQLAWYQQKPGKAPKLLIYSSSYLQSGVPSRFSGSGSGTDFTLTISSLQPEDFATYYCQQHLRVPFTFGQGTKVEIKR 10

Need MRC5 ND10 of ABT1-98 (other, dAb, VH, to IL-1α; also called dAb ABT1-98) VH: EVQLLESGGGLVQPGGSLRLSCAASGFTFDGYIMSWVRQAPGKGLEWVSTISPLGSVTYYADSVKGRFTISRDNSKNTLYLQMNSLRAEDTAVYYCAKKGPWFDYWGQGTLVTVSS , thanks. 10

Return reported MRC5 ND10; argument: ABT1-96 (other, dAb, VH, to IL-1α; also called dAb ABT1-96) VH: EVQLLESGGGLVQPGGSLRLSCAASGFTFNQYNMFWVRQAPGKGLEWVSVISGSGRFTYYADSVKGRFTISRDNSKNTLYLQMNSLRAEDTAVYYCAKGWWRRDPPFDYWGQGTLVTVSS 3

What value of measured MRC5 ND10 is listed for ABT1-6-23 (other, dAb, VH, to IL-1α; also called dAb ABT1-6-23) VH: EVQLLESGGGLVQPGGSLRLSCAASGFTFVRYDMAWVRQAPGKGLEWVSSIYKSGALTSYADSVKGRFTISRDNSKNTLYLQMNSLRAEDTAVYYCAKGWASFDYWGQGTLVTVSS ? 3
